Target: T1, human tumor necrosis factor-α (rHuTNF-alpha, Biosource) (human, UniProt P01375 77-233)
T1 construct: Bought recombinant protein coated on ELISA plates; The TNFα of the Biacore assay is not described further; also called TNFα; human TNFα
T1 sequence (P01375 77-233 limits assumed): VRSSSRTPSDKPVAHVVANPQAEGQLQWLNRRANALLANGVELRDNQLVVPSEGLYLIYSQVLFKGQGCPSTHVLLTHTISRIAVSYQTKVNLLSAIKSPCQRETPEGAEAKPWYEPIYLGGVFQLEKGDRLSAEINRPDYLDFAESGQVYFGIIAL
Assay: solid-phase ELISA, Fab lysate on coated rHuTNF-alpha
measured_quantity: binding result

[
  {
    "binder": "SEQ ID NO 43 (Fab, V domains shown, Fab, E. coli lysate) VH: EVQLVESGGGLVQPGGSLRLSCRASGSIFSNHWMNWVRQAPGKGLEWIGEIRSKSINGATSYAESVKGRFIISRDDNGNSLTLEMNSLKTEDTAEYYCAQNYYGSTPDYWGQGTLVTVS VL: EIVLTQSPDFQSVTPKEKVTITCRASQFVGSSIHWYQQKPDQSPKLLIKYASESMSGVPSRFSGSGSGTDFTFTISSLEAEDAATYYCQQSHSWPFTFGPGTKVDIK",
    "experimental_result": "binds"
  },
  {
    "binder": "SEQ ID NO 175 (Fab, V domains shown, Fab, E. coli lysate) VH: EVQLVESGGGLVQPGGSLRLSCRASGFIFSNHWMNWVRQAPGKGLEWIGEIRSKSINGATHYAESVKGRFIISRDDNKTSLTLEMNSLKTEDTAEYYCAQNYYGSTYDYWGQGTLVTVS VL: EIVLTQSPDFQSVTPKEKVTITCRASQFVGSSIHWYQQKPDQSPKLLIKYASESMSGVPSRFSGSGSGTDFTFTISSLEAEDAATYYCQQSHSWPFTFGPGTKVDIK",
    "experimental_result": "binds"
  }
]
